Source listed as patent US12435059B2.

So I've got a bunch of compounds here, and I need their log10 IC50 values.
- measurement-target: UniProt:P35968
- Sequence (P35968 20-1356): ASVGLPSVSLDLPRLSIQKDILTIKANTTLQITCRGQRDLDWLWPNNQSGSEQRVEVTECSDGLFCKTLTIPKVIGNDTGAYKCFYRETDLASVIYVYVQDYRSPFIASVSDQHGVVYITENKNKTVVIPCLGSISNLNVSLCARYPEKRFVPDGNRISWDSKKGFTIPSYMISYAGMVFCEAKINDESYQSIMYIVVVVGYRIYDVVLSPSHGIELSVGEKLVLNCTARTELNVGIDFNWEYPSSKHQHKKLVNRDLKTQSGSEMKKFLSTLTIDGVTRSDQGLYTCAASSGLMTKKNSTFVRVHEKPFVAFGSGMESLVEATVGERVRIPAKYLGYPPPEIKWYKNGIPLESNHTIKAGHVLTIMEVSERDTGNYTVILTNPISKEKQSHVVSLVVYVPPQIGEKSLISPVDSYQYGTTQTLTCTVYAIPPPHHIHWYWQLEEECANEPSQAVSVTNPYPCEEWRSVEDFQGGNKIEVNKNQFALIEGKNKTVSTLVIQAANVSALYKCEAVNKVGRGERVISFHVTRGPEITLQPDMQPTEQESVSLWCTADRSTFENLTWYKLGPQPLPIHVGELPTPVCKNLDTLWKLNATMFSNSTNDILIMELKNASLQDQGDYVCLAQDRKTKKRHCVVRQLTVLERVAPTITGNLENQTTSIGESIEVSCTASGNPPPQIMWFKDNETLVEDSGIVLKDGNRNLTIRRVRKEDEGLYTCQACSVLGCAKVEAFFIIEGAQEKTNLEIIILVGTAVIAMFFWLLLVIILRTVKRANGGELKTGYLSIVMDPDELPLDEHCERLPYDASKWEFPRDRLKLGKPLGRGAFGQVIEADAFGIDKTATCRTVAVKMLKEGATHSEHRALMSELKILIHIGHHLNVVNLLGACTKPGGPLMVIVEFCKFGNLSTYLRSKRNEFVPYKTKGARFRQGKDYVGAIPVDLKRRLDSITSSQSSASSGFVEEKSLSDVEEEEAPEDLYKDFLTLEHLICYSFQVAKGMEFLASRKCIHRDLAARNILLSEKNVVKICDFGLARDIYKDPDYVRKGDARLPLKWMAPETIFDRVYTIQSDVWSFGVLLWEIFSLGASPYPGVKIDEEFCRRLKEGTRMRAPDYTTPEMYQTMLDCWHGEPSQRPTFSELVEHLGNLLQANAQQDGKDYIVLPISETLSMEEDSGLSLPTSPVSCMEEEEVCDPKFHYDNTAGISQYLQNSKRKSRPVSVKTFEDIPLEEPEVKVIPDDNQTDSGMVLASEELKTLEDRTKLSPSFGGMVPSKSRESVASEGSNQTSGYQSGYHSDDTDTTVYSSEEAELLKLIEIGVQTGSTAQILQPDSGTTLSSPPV
- assay-comment: LanthaScreen Eu TR-FRET KDR competitive binding assay
- test-context: read-out: IC50 (nM) KDR; mean±S.D. (n=3); competitive binding
Kindly note that the scale is log10 and the underlying IC50 is in nM.

Item: CCN(CC)CCNC(=O)c1c(C)[nH]c(/C=C2\C(=O)Nc3cc(Cl)ccc32)c1C | System: UniProt:P35968 | log10 IC50: 2.31

Item: Cc1[nH]c(/C=C2\C(=O)Nc3ccc(F)cc32)c(C)c1C(=O)NCCN(C)C | System: UniProt:P35968 | log10 IC50: 2.69

Item: CCNCCNC(=O)c1c(C)[nH]c(/C=C2\C(=O)Nc3ccc(F)cc32)c1C | System: UniProt:P35968 | log10 IC50: 2.70

Item: CCN(CC)CCNC(=O)c1c(C)[nH]c(/C=C2\C(=O)Nc3ccc(CCO)cc32)c1C | System: UniProt:P35968 | log10 IC50: 2.93

Item: CCN(CC)CCCNC(=O)c1c(C)[nH]c(/C=C2\C(=O)Nc3ccc(F)cc32)c1C | System: UniProt:P35968 | log10 IC50: 2.68

Item: CCN(CC)CCNC(=O)c1c(C)[nH]c(/C=C2\C(=O)Nc3ccc(CCC(N)=O)cc32)c1C | System: UniProt:P35968 | log10 IC50: 3.58
